target.or.test.system: T1, human Y1 receptor (human, UniProt P25929 1-384)
T1 sequence (looked up): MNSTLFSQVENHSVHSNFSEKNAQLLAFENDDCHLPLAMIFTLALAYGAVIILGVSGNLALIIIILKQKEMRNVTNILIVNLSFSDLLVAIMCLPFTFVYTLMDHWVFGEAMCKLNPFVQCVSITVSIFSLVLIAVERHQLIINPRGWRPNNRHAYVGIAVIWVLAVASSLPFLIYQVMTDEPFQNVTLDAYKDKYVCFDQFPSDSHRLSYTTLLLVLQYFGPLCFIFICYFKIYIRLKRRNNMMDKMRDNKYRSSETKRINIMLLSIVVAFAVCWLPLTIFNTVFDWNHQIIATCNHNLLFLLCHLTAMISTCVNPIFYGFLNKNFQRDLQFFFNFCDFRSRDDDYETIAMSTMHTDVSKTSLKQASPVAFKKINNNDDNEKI
protocol.description: cell-based or functional assay
Where no end group is shown, it is not given here.
property: EC50, inositol phosphate turnover in transfected COS-7 cells (hY1 potency assay)

binder	measured.result
PLEPVYPGDNATPEQMAQYAADLRRYINNLTRPRY-NH2 [[Asn30]PP2-36]	> 1 µM
PLEPVYPGDNATPEQMAQYAADLRRYINTLTRPRY-NH2 [[Thr30]PP2-36]	> 1 µM

Asked: Dear colleague, please send me the reported EC50, inositol phosphate turnover in transfected COS-7 cells (hY1 potency assay) for PLEPVYPGENATPEQLAQYAADLRRYINTLTRPRY-NH2 [[Glu10, Leu17, Thr30]PP2-36] when you can.
Given back: > 1 µM
